Values from the supplement of paper PMC11732987

Test System: UniProt O00487
Sequence (O00487 whole entry, the tested form may be a part): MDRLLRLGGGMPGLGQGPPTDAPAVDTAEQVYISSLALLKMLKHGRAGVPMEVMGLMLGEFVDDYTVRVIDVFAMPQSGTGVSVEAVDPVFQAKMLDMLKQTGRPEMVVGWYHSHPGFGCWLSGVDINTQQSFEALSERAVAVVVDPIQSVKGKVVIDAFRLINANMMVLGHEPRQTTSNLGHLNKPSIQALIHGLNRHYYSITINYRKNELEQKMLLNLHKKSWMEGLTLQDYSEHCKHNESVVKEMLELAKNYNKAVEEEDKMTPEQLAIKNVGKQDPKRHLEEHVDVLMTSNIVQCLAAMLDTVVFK
Experimental Details: log2 ratio of Biotin-Ahx-Ub-VS probe labelling (fragment/DMSO); higher = less target engagement (more negative = stronger competition), active = hit call of the paper (q ≤ 0.05, log2 ratio ≤ -1)
Test Conditions: compound concentration: 200 uM; treatment time: 3 h
Give measured log2 ratio of Biotin-Ahx-Ub-VS probe labelling for each item. Keep answers brief.
Respond using a number only.

Record `Cc1ccc(CNC(=O)CCl)nc1C.Cl` , field log2 ratio of Biotin-Ahx-Ub-VS probe labelling: -0.156

Record `Cc1ccc(C(=O)NCCNC(=O)CCl)cc1` , field log2 ratio of Biotin-Ahx-Ub-VS probe labelling: -0.0816

Record Cc1ccc(N(C(=O)CCl)C2C=CS(=O)(=O)C2)cc1 (stereo not drawn) , field log2 ratio of Biotin-Ahx-Ub-VS probe labelling: 0.0368

Record NC(=O)C(Cc1ccccc1)NC(=O)CCl (stereo not drawn) , field log2 ratio of Biotin-Ahx-Ub-VS probe labelling: -0.162

Record `O=C(CCl)NCCc1ccc2c(c1)OCCO2` , field log2 ratio of Biotin-Ahx-Ub-VS probe labelling: -0.093

Record `CS(=O)(=O)N1CCCN(C(=O)CCl)CC1` , field log2 ratio of Biotin-Ahx-Ub-VS probe labelling: 0.0126

Record `N#Cc1ccccc1N1CCN(C(=O)CCl)CC1` , field log2 ratio of Biotin-Ahx-Ub-VS probe labelling: 0.0611

Record `O=C(CCl)N1CC2(CCOCC2)C1` , field log2 ratio of Biotin-Ahx-Ub-VS probe labelling: -0.0916

Record `Cc1ccc(C)c(Oc2ccc(CNC(=O)CCl)cn2)c1.Cl` , field log2 ratio of Biotin-Ahx-Ub-VS probe labelling: -0.0677

Record `Cc1ccccc1OCC(=O)N1CCN(C(=O)CCl)CC1` , field log2 ratio of Biotin-Ahx-Ub-VS probe labelling: 0.0797

Record `COCC[C@@H](NC(=O)CCl)c1ccccc1` , field log2 ratio of Biotin-Ahx-Ub-VS probe labelling: -0.0153

Record `CCc1c[nH]c(CNC(=O)CCl)n1.Cl` , field log2 ratio of Biotin-Ahx-Ub-VS probe labelling: -0.193

Record O=C(CCl)N1CCOC(c2cccc(F)c2)C1 (stereo not drawn) , field log2 ratio of Biotin-Ahx-Ub-VS probe labelling: 0.15
